studyTarget: T1, HER3 extracellular domain 4, biotinylated (N-terminal AviTag and His6 tag) (human, biotin (in vitro biotinylation, AviTag))
T1 construct: HER3 (ErbB3) extracellular domain 4, human, residues 500-643 of UniProt entry P21860; also called HER3d4; HER3 domain 4; source: Sf9 insect cells (baculovirus), secreted, purified (IMAC, Superdex 75), biotinylated in vitro; not shown: AviTag, N-terminal, kept
T1 chain: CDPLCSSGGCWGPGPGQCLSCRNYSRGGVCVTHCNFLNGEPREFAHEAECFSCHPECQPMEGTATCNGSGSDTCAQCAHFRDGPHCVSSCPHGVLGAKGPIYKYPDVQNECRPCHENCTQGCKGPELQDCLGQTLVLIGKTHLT
experimentNotes: SPR; ProteOn XPR36, NeutrAvidin NLC chip; biotinylated HER3d4 immobilised; monomeric DARPins injected at 2.5, 7.5, 22, 67 and 200 nM (duplicates), 60 µl/min, 5 min association, 5 min dissociation; PBS with 0.005% Tween-20; kinetic titration model
experimentalContext: both partners purified
Measured kon, listed per entry.
Note: unit M⁻¹ s⁻¹ is implicit; provide only the numeric part.

Example results:
{"columns": ["binder", "unitTag", "kon"],
 "data": [
  ["DARPin D6 (designed binder, N3C DARPin selected by ribosome display; source: E. coli XL1 Blue, purified (HisPur Cobalt Spin Plates)) GSDLGKKLLEAARAGQDDEVRILMANGADVNAQDVSGQTPLHLAAIWGHLEIVEVLLKTGADVNAWDHWGNTPLHLAAWQGHLEIVEVLLKAGTDVNAKDSEGFTPLHLAAWWGHLEIVEVLLKHGADVNAQDKFGKTPFDLAIDNGNEDIAEVLQKAAKLN", "M⁻¹ s⁻¹", 138000],
  ["DARPin D2 (designed binder, N2C DARPin selected by ribosome display; source: E. coli XL1 Blue, purified (HisPur Cobalt Spin Plates)) GSDLGKKLLEAARAGQDDEVRVLMANGADVNAFDHNGSTPLHLAAAIGHLEIVEVLLKYGADVNAEDNWGNTPLHQAAWVGHREIVEVLLKYGADVNAQDKFGKTAFDISIDNGNEDLAEILQKLN", "M⁻¹ s⁻¹", "1.37e+06"],
  ["DARPin D7 (designed binder, N3C DARPin selected by ribosome display; source: E. coli XL1 Blue, purified (HisPur Cobalt Spin Plates)) GSDLGKKLLEATRAGQDDEVRILMANGADVNAQDVSGQTPLHLAAIWGHLEIVEVLLKTGADVNAQDWFGETPLHLAAVQGHLEIVEVLLKTGADVNAWDAYGHTPLHLAANYGHLEIVEVLLKHGADVNAQDKFGKTPFDLAIDNGNEDIAEVLQKAAKLN", "M⁻¹ s⁻¹", 196000]
]}

Next:
Dear colleague, I am looking for the recorded kon of the following binder: DARPin D3 (designed binder, N2C DARPin selected by ribosome display; source: E. coli XL1 Blue, purified (HisPur Cobalt Spin Plates)) GSDLGKKLLEAARAGQDDEVRILMANGADVNAFDHSGSTPLHLAAAIGHLEIVEVLLKYGADVNAEDNWGNTPLHQAAWVGHREIVEVLLKYGADVNAQDKFGKTAFDISIDNGNEDLAEILQKLN
1.35e+06
